# MEASUREMENT_DESCRIPTION: Cytotoxicity against human neutrophils at 10 ug/ml after 15 mins by LDH release assay
# Assay type: cell-based
# EXPERIMENTAL_CONTEXT: neutrophil, 0.25 h
PROPERTY_MEASURED: Activity

>>> df
                            compound_string  property_measured     result
0  C=C(C)C(=O)O[C@H]1[C@H]2C(=C)C(=O)O[C@@H]2/C=C(\CO)CC/C=C(/C=O)[C@H]1OCC           Activity  Non-toxic
1  COC(=O)[C@]1(C)CCC[C@@]2(C)[C@@H]3CC[C@@H]4C[C@@]3(CC[C@@H]21)C[C@@H]4CO           Activity      Toxic
2  C[C@@]12CCC[C@@](C)(C(=O)O)[C@H]1CC[C@]13C[C@H](CO)[C@@H](CC[C@H]12)C3           Activity  Non-toxic
3  CC(=O)OC[C@@]1(C(=O)O)CCC[C@@]2(C)[C@@H]3CC[C@H]4C[C@@]3(CC[C@H]12)C[C@H]4COC(=O)C(C)C           Activity  Non-toxic

---

# System: RAW264.7
# MEASUREMENT_DESCRIPTION: Inhibition of NO production in LPS/IFN-gamma activated mouse RAW264.7 cells after 24 hrs by Griess assay
# Assay type: functional, cell-based
# EXPERIMENTAL_CONTEXT: Mus musculus, RAW264.7, 24 h; read-out: IC50
PROPERTY_MEASURED: IC50 (µM)
Unit µM implied. Number only.

Some compounds with known IC50 results, for comparison:
>>> print(df.to_string())
                                   compound  property_measured  result
0  C=C1C(=O)O[C@H]2C[C@@H](C)[C@@H]3CC[C@H](O)[C@@]3(C)C[C@H]12 [PSEUDOGUAIANOLIDE]               IC50    14.9
1  C=C(C)C(=O)O[C@H]1[C@H]2C(=C)C(=O)O[C@@H]2/C=C(\CO)CC/C=C(/C=O)[C@H]1OCC               IC50     6.8
2  C=C1C(=O)O[C@@H]2C[C@]3(C)[C@@H](CCC(C)O)[C@@H]3C[C@H]12 (some centres undefined)               IC50    18.9

Next:
Query: API: value(readout= IC50, system= RAW264.7, query= `C=C1C(=O)O[C@@H]2C[C@]3(C)[C@@H](CCC(C)=O)[C@@H]3C[C@H]12` )
Result: 6.4

Source: ChEMBL document CHEMBL3352285
